Parameter 'readout' = Ki; parameter 'system' = UniProt:Q9Y5N1.
Sequence (Q9Y5N1 whole entry): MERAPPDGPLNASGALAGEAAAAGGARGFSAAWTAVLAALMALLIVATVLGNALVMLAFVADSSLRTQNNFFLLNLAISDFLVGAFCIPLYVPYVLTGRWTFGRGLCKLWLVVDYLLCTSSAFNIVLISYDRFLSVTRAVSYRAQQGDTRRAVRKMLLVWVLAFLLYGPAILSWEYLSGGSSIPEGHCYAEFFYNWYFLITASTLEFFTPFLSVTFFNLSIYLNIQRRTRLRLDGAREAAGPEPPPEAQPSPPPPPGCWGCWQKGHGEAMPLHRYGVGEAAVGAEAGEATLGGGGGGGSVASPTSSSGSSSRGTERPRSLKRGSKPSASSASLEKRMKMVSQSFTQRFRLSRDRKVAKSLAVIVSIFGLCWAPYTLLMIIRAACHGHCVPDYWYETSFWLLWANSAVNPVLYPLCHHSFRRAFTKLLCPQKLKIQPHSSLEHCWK
Answer with the figure and its unit, nothing else.

Solved entries:
c1ccc(C[C@@H]2COC(c3cccc(Cc4cnc[nH]4)c3)=N2)cc1    89.1 nM
C(#Cc1cccc(Cc2c[nH]cn2)c1)c1ccccc1    1.82 nM
CC1(C)COC(c2ccc(Cc3c[nH]cn3)cc2)=N1    2510 nM
CC1(C)CN=C(c2cccc(Cc3cnc[nH]3)c2)OC1    2510 nM
c1ccc(-c2cccc(Cc3cnc[nH]3)c2)cc1    33.1 nM
CC1CC(C)(C)N=C(c2cccc(Cc3c[nH]cn3)c2)O1 (stereo not drawn)    1.26 nM
c1cc(Cc2cnc[nH]2)cc(-c2ccncc2)c1    427 nM
c1ccc(Cc2c[nH]cn2)cc1    162 nM
c1cc(Cc2cnc[nH]2)cc(C2=NC(CC3CCCCC3)CO2)c1 (stereo not drawn)    708 nM
CC(C)(C)CC(=O)c1cccc(Cc2cnc[nH]2)c1    32.4 nM

Prompt: Consider the molecule `CCCC#Cc1cccc(Cc2c[nH]cn2)c1` and give its measured Ki.
Completion: 3.16 nM

Prompt: // repeat for `N#Cc1ccc(Cc2c[nH]cn2)cc1` and report
Completion: 813 nM

Prompt: // repeat for `Brc1ccc(Cc2c[nH]cn2)cc1` and report
Completion: 417 nM
